// provenance: paper PMC7819943

- target: OsWRKY34 (Oryza sativa, UniProt Q0JBA9 1-250)
- Sequence (Q0JBA9 entry or part of it): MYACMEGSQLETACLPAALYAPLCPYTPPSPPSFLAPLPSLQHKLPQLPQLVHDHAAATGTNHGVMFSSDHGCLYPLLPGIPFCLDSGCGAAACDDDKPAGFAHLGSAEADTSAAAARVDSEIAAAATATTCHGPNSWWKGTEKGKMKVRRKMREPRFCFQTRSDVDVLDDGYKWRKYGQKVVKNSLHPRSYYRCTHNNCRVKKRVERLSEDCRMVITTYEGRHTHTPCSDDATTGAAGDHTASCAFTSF
- procedure summary: protein-binding microarray (RPBM); PBS, 2% BSA, 51.3 ng/ul salmon testes DNA, 50 uM zinc acetate, 200 nM TF, 25 C, 1 h; high values mean tight binding
- condition info: protein: recombinant; tags: N-terminal polyhistidine and DsRed monomer fusion (pET32a); label: CyDye5-dUTP incorporated in the synthesized complementary strand; 3' TTTTT single-stranded linker to array surface; dsDNA, one strand shown
In all, about 68,000 sequences were measured (“fluorescence intensity (a.u.)”: median about 9,100, highest 2% from about 16,000 on). Only a selection was taken, and the highest values are over-represented in it overall.
outcome measure: binding signal

CGCCAACTCAACGCTGAAGCCGCTGCCTCACCATCTCGTCCGGAGTCACCTAGTGCAG 8780 fluorescence intensity (a.u.)
TCCGTGTCCAATGTTTGACCATCCGTCTTATTTAAAAAAACGGAGTCACCTAGTGCAG 8070 fluorescence intensity (a.u.)
TGTTGTGTGTTAGTTGTGGTGGTAGCATTTTTTCCTGGTACGGAGTCACCTAGTGCAG 13000 fluorescence intensity (a.u.)
GGTCTTGCTAGTTGGCCATGTGAGAGTGAGACCGGGTCTCCGGAGTCACCTAGTGCAG 50700 fluorescence intensity (a.u.)
CGTGTGGGTGGGTGGGTGGAGTGGACTGGTTTCTGTGAGCCGGAGTCACCTAGTGCAG 18500 fluorescence intensity (a.u.)

Return reported binding signal values for all items listed beneath this line.
1. GGGGAAATTTTCACGAGGGAGAGGGAGGGGAGGGATATTTCGGAGTCACCTAGTGCAG
2. ATTATTTTTGGTTGTTCTATTTATTTTCTTAAAATAATTCCGGAGTCACCTAGTGCAG
3. GAAGGAGAAGGAGAGGGGAGGGGCTGACGGGTGGGGTCCACGGAGTCACCTAGTGCAG
4. GAGATGTGTCCATATTTGTAGTATTGGGTGGTATCTATTTCGGAGTCACCTAGTGCAG
5. AGGAGTGTCTGGTTGGTTTCCGGGGTGTGTTGGGTGACTCCGGAGTCACCTAGTGCAG
6. ATTCGATTTTCTTGCACCTAAACACATGCAACCCATCATTCGGAGTCACCTAGTGCAG

Ans:
23200 fluorescence intensity (a.u.)
11300 fluorescence intensity (a.u.)
14000 fluorescence intensity (a.u.)
8550 fluorescence intensity (a.u.)
29500 fluorescence intensity (a.u.)
10100 fluorescence intensity (a.u.)

Can you give me binding signal for all of these, one by one?
1. GTGGGAGTGGCGGTGTCGGGTCCGGAACGAAACGGCGGGGCGGAGTCACCTAGTGCAG
2. ATGCGGATCTGAGTGGTGGTGGTGGTGGACTGGTGGTTGCCGGAGTCACCTAGTGCAG

Ans:
["10300 fluorescence intensity (a.u.)", "11000 fluorescence intensity (a.u.)"]

Hi team, please reply with binding signal for each item in this list.
1. CTTTCTTCTGTGTGGTGGGTTTTAGCCGGTTTCTCGCAATCGGAGTCACCTAGTGCAG
2. TATGGACTGTTTTGTTTTGTTCCCCTAGCTAGAATTATTCCGGAGTCACCTAGTGCAG
3. AAAAAGAGTTCTCTTCTTCACTTCTACTCTTCACAACTTTCGGAGTCACCTAGTGCAG
4. TCTTTGTTTCCCGCGTTTTGTTGGGGATTCGATTTTCGGGCGGAGTCACCTAGTGCAG
5. GGGTTCACCACCAAACTCGCCACCTATAAACGCTCCTCGCCGGAGTCACCTAGTGCAG
6. TTGTTGGCAAGTTTCTTCCCTTGTCTCTCTCTTGTGAGACCGGAGTCACCTAGTGCAG
7. TTTGGTTACCGCATTTTTGTGTTCTTCTGTGCAGTTTAGCCGGAGTCACCTAGTGCAG
8. TACGAGGAGGGCCCATGCGTCGGTGGGTAGGGTGAAAAGACGGAGTCACCTAGTGCAG

Ans:
["18400 fluorescence intensity (a.u.)", "9880 fluorescence intensity (a.u.)", "9410 fluorescence intensity (a.u.)", "11100 fluorescence intensity (a.u.)", "9030 fluorescence intensity (a.u.)", "8700 fluorescence intensity (a.u.)", "8150 fluorescence intensity (a.u.)", "8690 fluorescence intensity (a.u.)"]

For each of the items listed, what is its binding signal?
1. ATTTGTGATGTGGATTTGGGGTGTTACTTTGATTTGGGGACGGAGTCACCTAGTGCAG
2. GCCATGTGACTAGACCGAGCTAGCTCGCTCGATCGATCTCCGGAGTCACCTAGTGCAG
3. CAATTTTAGTTCAATCTTGGGTGTTTTCGCATGGTTCTCTCGGAGTCACCTAGTGCAG

Ans:
1. 12900 fluorescence intensity (a.u.)
2. 8510 fluorescence intensity (a.u.)
3. 8180 fluorescence intensity (a.u.)
